Reference source for all entries: PubChem BioAssay (NCI)

# Tested on: HCC-2998 colon
# protocol: NCI tumour cell line growth inhibition, 48 h
Give measured TGI for each item. Keep answers brief.
The response must be a number in µM with no trailing unit.

[in] Query: TGI; subject: `CC(=N/NC(=S)N1CCCCCC1)/C(C)=N\NC(=S)N1CCCCCC1`
[out] 18.6

[in] # lookup: TGI of C[C@@H](O)[C@@H](C)Oc1nc(Nc2ccc(S(=N)(=O)C3CC3)cc2)ncc1C(F)(F)F (some centres undefined)
[out] 2.72

[in] Given the molecule `CC/C=C\C[C@H]1C/C=C2/C(=O)C=C[C@H]2C/C=C\CCCC(=O)O1` , what is its reported TGI?
[out] 8.43

[in] I would be grateful if you could share the reported TGI for C[C@H]1CCC/C=C/C2CC(OC(=O)CN(C)C)CC2C(OC(=O)CN(C)C)/C=C/C(=O)O1 (some centres undefined) .
[out] 0.537

====

# Tested on: SR leukemia
# protocol: NCI tumour cell line growth inhibition, 48 h
measurement label: TGI

[in] TGI for `O=C1c2ccccc2N=C(c2cc3c(cc2Cl)Sc2nccn2S3(=O)=O)OS(=O)(=O)N1c1ccccc1` ?
[out] 26.2 µM

[in] Looking for the measured TGI of `CCN(CC)CCNc1c2ccccc2nc2cccc([N+](=O)[O-])c12` , can you help?
[out] 0.0888 µM

[in] Can you look up the measured TGI of `COc1ccccc1-n1cnc(N)c1C(=O)c1cc(OC)c(OC)c(OC)c1` for me?
[out] > 100 µM

[in] Give the measured TGI of COC(=O)C(C(=O)C(=O)Nc1ccc(C)cc1)c1nc2ccc([N+](=O)[O-])cc2[nH]c1=O (centres undefined) .
[out] > 100 µM

[in] Recorded TGI for `Cn1c(N/N=C/c2ccccc2)nc(-c2ccc3c(c2)OCO3)c(C#N)c1=O` , please?
[out] > 100 µM

[in] Need TGI of `Cc1cc(F)c(C(=O)Nc2cccc(-c3nncn3C(C)C)n2)cc1-n1cnc(C2CC2)c1` , thanks.
[out] > 100 µM

[in] TGI for CCOC(=O)C1(CC(=O)O)CCCC1=O (centres undefined) ?
[out] > 100 µM

[in] Requested field: TGI. Item: `COc1ccc2c(c1)CC[C@@H]1[C@@H]2CC[C@]2(C)/C(=N/OCCN3CCCC3)CC[C@@H]12`
[out] 4.49 µM

[in] Sample CC12NC(=C(C#N)C#N)C(C#N)=C3NC(N)=C(C#N)C(=C31)Oc1ccccc12 (centres undefined) — what was its TGI?
[out] > 100 µM

====

# Tested on: NCI-H522 lung
# protocol: NCI tumour cell line growth inhibition, 48 h
Kindly state TGI for each of the entries shown.

[in] Returns the measured TGI for the input compound. Input: C/C=C1\CC(C(=O)OCC)CCCCCCC1=O (stereo not given)
[out] > 100 µM

[in] Give the measured TGI of `c1ccc(-c2cnc(SC(c3ccccc3)c3ccccc3)[nH]2)cc1` .
[out] 54.6 µM

[in] For the compound shown here, O=C(O)C1C2C=CC(O2)C1C(=O)NCc1cccnc1 (stereo not given) , give the reported TGI.
[out] > 100 µM

[in] Report TGI for `O=c1oc2ccc([N+](=O)[O-])cc2nc1/C=C(\O)c1ccccc1` please.
[out] > 100 µM

[in] Which TGI value is on record for C[C@@H](C1CC[C@H]2[C@@H]3[C@@H]4O[C@@H]4[C@@]4(O)CC=CC(=O)[C@]4(C)[C@H]3C[C@H](O)[C@]12C)[C@H]1C[C@]2(C)O[C@]2(C)C(=O)O1 (stereo not given in full) ?
[out] > 100 µM

====

# System: 786-0 renal
# protocol: NCI tumour cell line growth inhibition, 48 h
measurement label: TGI (µM)
Respond with the bare value in µM.

[in] Form field: reported TGI of `O=C(NC1CCN(Cc2ccccc2)CC1)c1cc(-c2cccnc2)nc2ccc(Cl)cc12`
[out] 17.7

[in] Give its TGI value. Item: `O=C(Nc1ccc(OS(=O)(=O)c2ccc(F)cc2)cc1)C12CC3CC(CC(C3)C1)C2`
[out] 44.5

[in] For the molecule `CN(C)c1ccc(/C=C/C(=O)c2ccc(Nc3nc(Nc4ccc(F)cc4)nc(Nc4ccc(F)cc4)n3)cc2)cc1` , what TGI is on record?
[out] 45.8

[in] Entry `Cc1nnc(C[C@@H]2C=C(c3ccc(Cl)cc3)c3ccccc3-n3c(C)nnc32)o1` : reported TGI = ?
[out] 38.7

====

# System: ACHN renal
# protocol: NCI tumour cell line growth inhibition, 48 h
Hi there, I'd appreciate the recorded TGI for every entry that follows.

[in] Please give the measured TGI for this compound: `CC1=C(C(=O)NNC(=O)Cc2ccccc2)CC(C(=O)NNC(=O)Cc2ccccc2)=C(C)N1`
[out] > 100 µM

[in] TGI lookup needed for `Cc1cccc2c(N)c3cccc(C(=O)NCC[N+](C)(C)Cc4ccc([N+](=O)[O-])n4C)c3nc12` , thanks.
[out] 56.1 µM

[in] Endpoint output: TGI of `[N-]=[N+]=CC(=O)C1(C(=O)C=[N+]=[N-])CC1` . Value?
[out] > 100 µM

[in] # lookup: TGI of `COc1ccc(C=Nc2ccc(-c3nc4ccccc4s3)cc2)cc1OC`
[out] 70.5 µM

[in] # input compound: `O=c1oc2cc(O)ccc2c2[nH]c3cc(O)ccc3c12` ; wanted: its TGI
[out] 62.5 µM

[in] Recorded TGI of Cc1nc2ccccn2c1NC(=O)NN1C(=O)CSC1c1ccc(Cl)cc1 (stereo not given) , please.
[out] > 100 µM

[in] Which TGI reading was recorded for the compound `Cc1nc2cn3c(c2c(=O)[nH]1)CCCCC3` ?
[out] > 100 µM

[in] Any idea what its TGI is? The compound is COc1ccc(/C=C2/N=C(N/N=C\C(O)C(O)C(O)CO)NC2=O)cc1 (stereo not given)
[out] > 100 µM

[in] Given Nc1nc(=O)n(C2CC(O)C(CO)O2)cc1F (stereo not given) , state its recorded TGI.
[out] > 100 µM

[in] Fill in: TGI of O=C1CC(c2ccc(Cl)cc2)C2(C(=O)NC(=S)NC2=O)C(c2ccc(Cl)cc2)C1 (stereo not given) is ___
[out] > 100 µM

====

# Tested on: RXF 393 renal
# protocol: NCI tumour cell line growth inhibition, 48 h
measurement label: TGI (µM)
// return numeric value only (unit: µM, not printed)

[in] Kindly state the measured TGI obtained for CC(=O)OC1C[C@H]2C(OC(=O)c3ccccc3)C3C4(OC(C)=O)COC4C[C@H](OC(C)=O)[C@@]3(C)C(OC(C)=O)[C@H](OC(C)=O)C(=C1C)C2(C)C (stereo not given in full) with RXF 393 renal.
[out] 49.3

[in] Form field - read-out: TGI; system: RXF 393 renal; submitted item: `COc1cc(/C=C/C(=O)c2cccc3ccccc23)cc(OC)c1OC`
[out] 7.93

[in] Provide value of TGI for this record tested with RXF 393 renal: `O=C(NCCCCCCCCCCCCNC(=O)c1cnc2ccccc2n1)c1cnc2ccccc2n1`
[out] 88.6

[in] Quick check: TGI on RXF 393 renal, item `O=C1c2ccccc2N=C(c2cc3c(cc2Cl)Sc2nccn2S3(=O)=O)OS(=O)(=O)N1c1ccccc1` ?
[out] 84.7

[in] What value of TGI on RXF 393 renal does `CCOC(=O)Oc1cc2ccsc2c2c1c1ccccc1n2C(=O)OCC` have?
[out] 45.8

[in] Enter reported TGI observed with RXF 393 renal for COC(=O)C1OC(O[C@H]2CC[C@]3(C)[C@H]4CC=C5[C@@H]6CC(C)(C)CC[C@]6(C(=O)OC)CC[C@@]5(C)[C@]4(C)CC[C@H]3C2(C)C)C(O)C(O)C1O (stereo not given in full)
[out] 18.2

[in] Provide value of TGI for this record tested with RXF 393 renal: `NC(N)=NN=c1c(=O)c2ccccc2c1=O`
[out] 25.9

[in] Short answer please: TGI, RXF 393 renal, entry `CN(C)c1ccc(/C=C/C(=O)c2ccc(Nc3nc(Nc4ccc(F)cc4)nc(Nc4ccc(F)cc4)n3)cc2)cc1`
[out] 26.1

[in] What TGI appears in the records for this molecule with RXF 393 renal? `CC/C=C\C[C@H]1C/C=C2/C(=O)C=C[C@H]2C/C=C\CCCC(=O)O1`
[out] 8.01

====

# Test system: SNB-19 CNS
# protocol: NCI tumour cell line growth inhibition, 48 h
measurement label: GI50

[in] Item under review: `O=C([CH-]C(=O)c1ccccc1)c1ccccc1.[C-]#[O+].[C-]#[O+].[Ir]` . Reported GI50?
[out] 66.4 µM

[in] Bench note: what GI50 did Cc1nc2ccccn2c1NC(=O)NN1C(=O)CSC1c1ccc(Cl)cc1 (stereo not given) show?
[out] > 100 µM

[in] Recorded GI50 of `CN(C)c1ccc(/C=C/C(=O)c2ccc(Nc3nc(Nc4ccc(F)cc4)nc(Nc4ccc(F)cc4)n3)cc2)cc1` , please.
[out] 29.6 µM

[in] Endpoint output: GI50 of `COc1ccc(C(=O)/C=C/c2sc(Cl)nc2Cl)cc1` . Value?
[out] 1.99 µM

[in] # input molecule: `COc1cccc(/C=N/[N-]C(=O)c2ccncc2)c1[O-].[Mn+2].[OH3+]` ; wanted: its GI50
[out] 42 µM
